Test: inhibition of PEG-3 promoter activity – cell-based, HeLa, luciferase luminescence, primary screen (AID 588405)
Conditions: HeLa PEG-Prom luciferase reporter, overnight, at 20 µM, stronger effect = higher value
Hit rate of the full screen: of about 360,000 compounds, about 6,200 (1.7%) were called active. The sample holds actives, similar compounds and a random draw of the others, so the mix is not that of the screen.
Each entry below lists one item and its recorded inhibition value.
Give your result in % as a bare value.

Some compounds with recorded inhibition:
CN1CCC[C@@H]1CCO[C@](C)(c1ccccc1)c1ccc(Cl)cc1 ... 14.3
COc1ccc(C(=O)N2CCCCC2c2cc(C(=O)Nc3ccc(F)c(Cl)c3)no2)cc1 (centres undefined) ... 11.5
Cc1c(NC(=O)CSc2cccc3cccnc23)c(=O)n(-c2ccccc2)n1C ... 23.3

Ask: Suppose we examine the compound CCCS(=O)(=O)NC(=O)C1(C)CCCN(C(=O)c2cccs2)C1 (centres undefined) ; what inhibition value has been reported?
Result: 12.1

Ask: Param item = CNC[C@H](CC1CCCCC1)NC[C@H](NCCC1CCCC1)[C@H](C)O ; retrieve measured inhibition.
Result: 73.8
